Attribution: PubChem BioAssay (NCI)

- Test system: MDA-MB-231 breast
- protocol notes: NCI-60 one-dose screen, 48 h (100 = growth as untreated, 0 = no growth, -100 = all killed)
- stated conditions: 10 µM unless noted
Compounds without any hit were thinned out: in the full panel of roughly 83,000, 20% have a hit.
parameter measured: growth (%)
I only need the number, in %, no unit after it.

Entry under review: `COc1ccc(CCN2C(=O)CSC2=S)cc1OC` . Reported growth?
80.4

Would you mind telling me what growth value was observed for `COc1ccc(S(=O)(=O)n2cc(C=O)c3ccccc32)c(OC)c1` ?
95.5

Quick check: growth of `C#C[C@]1(O)CC[C@H]2[C@@H]3CC=C4c5sc(Nc6cccc(Cl)n6)nc5CC[C@]4(C)[C@H]3CC[C@@]21C` ?
9.05

Quick one: growth of `O=C(CCCCCCN1CC(=O)N2[C@@H](c3cccc(Cl)c3)c3[nH]c4ccccc4c3C[C@H]2C1=O)NO` ?
39.5

Return reported growth; argument: `O=C1Nc2cc(OC(F)(F)F)ccc2Oc2ccc(-c3ccnc(N4CC[C@H](O)C4)c3)cc21`
17.2

Return reported growth; argument: `COc1cc([C@H]2OC[C@H]3[C@@H]2CO[C@@H]3c2ccc(O)c(OC)c2)ccc1O`
65.2

Given the entry `COc1cc2oc(-c3cccc(NC(=O)c4cc(NC(=O)[C@H](C)NC(=O)OC(C)(C)C)ccc4C)c3)cc(=O)c2c(OC)c1OC` , report its measured growth.
65.1

Which growth value is on record for `CCCCCCNC(=O)Oc1ccc(/C(=C(/C)c2ccccc2)c2ccc(OCCN(C)C)cc2)cc1` ?
52.2

Item under review: `COc1ccc(C(=O)n2cc(C=O)c3ccccc32)cc1` . Reported growth?
91.8

Could you tell me which growth is on file for `Nc1cc(F)ccc1NC(=O)c1ccc(NC(=O)C/C=C/c2cccnc2)cn1` ?
45.3

Need growth of `C#C[C@]1(O)CC[C@H]2[C@@H]3CC=C4c5sc(C6CCOCC6)nc5CC[C@]4(C)[C@H]3CC[C@@]21C` , thanks.
73.9

Entry under review: `Cc1cc(=O)n2nc(-c3c[nH]c4ccccc34)sc2n1` . Reported growth?
90.6

Query: growth; subject: `O=C1[C@@H]2Cc3c([nH]c4ccccc34)[C@H](c3c(Cl)cccc3Cl)N2C(=O)CN1C1CCN(Cc2ccccc2)CC1`
55.4

# input molecule: `COC(=O)[C@@]1(C)CC[C@]2(C)CC[C@]3(C)C(=CC(=O)[C@@H]4[C@@]5(C)Cc6c(n(CC#CCN7CCN(C)CC7)c7ccccc67)C(C)(C)[C@@H]5CC[C@]43C)[C@@H]2C1` ; wanted: its growth
67.2

GET /values?readout=growth&item= `O=S(=O)(Nc1ccc(-c2nc(-c3cccc(O)c3)c(-c3ccnc(Br)c3)[nH]2)cc1)c1ccccc1`
23

Quick check: growth of `Fc1ccc(-c2cc3nc(C(Cl)Cl)nc(-c4cccs4)n3n2)cc1` ?
-15.2

I have this molecule here, `C#C[C@]1(O)CC[C@H]2[C@@H]3CC=C4c5sc(C6CC6)nc5CC[C@]4(C)[C@H]3CC[C@@]21C` , and I need its recorded growth.
91.3

Could you share which growth value was measured for `O=C(NCCCNc1cc(-c2cn(-c3ccccc3)nc2-c2cccc(O)c2)ccn1)Nc1ccc(F)cc1` ?
0.136

----------
- Tested on: SK-OV-3 ovarian
- protocol notes: NCI-60 one-dose screen, 48 h (100 = growth as untreated, 0 = no growth, -100 = all killed)
- stated conditions: 10 µM unless noted
About 83,000 compounds went through this panel and 20% of them were active in at least one assay; those are over-represented in the sample as a whole.
Mark each entry Satisfied if its growth sits below 90%, and Not satisfied for all others.

Is it true that growth reported for `Cn1cc(-c2nn3c(=O)cc(-c4ccccc4)nc3s2)c2cc(F)ccc21` is less than 90%?
Satisfied

Quick check: growth of CCN1C(=O)N(CC)C2SC(N/N=C/c3ccccc3)=NC21 (centres undefined) under 90%?
Satisfied

Report whether reported growth is lower than 90% (strictly) for `Cc1cc(NS(=O)(=O)c2ccc(-c3cnc(C4CC4)o3)cc2)ccc1I`
Satisfied

Dear reviewer, please state whether `CCCCCc1ccc(S(=O)(=O)N(C(C)=O)c2cccc(-c3csc(N(CCN4CCN(C)CC4)C(C)=O)n3)c2)cc1` has growth strictly beneath 90%.
Not satisfied

Is growth strictly under 90% for the entry `COc1ccc2c(ccn2C(=O)N2c3ccccc3Sc3ccccc32)c1` ?
Satisfied

Please determine if CC1(C)CC[C@]2(C(=O)O)CC[C@]3(C)C(=CCC4[C@@]5(C)C[C@@H](O)[C@@H]6OC(c7cccc([N+](=O)[O-])c7)OC[C@@]6(C)C5CC[C@]43C)C2C1 (some centres undefined) is below 90% in terms of growth.
Not satisfied

# check: growth < 90% for O=C(COc1ccc(C2SCC(=O)N2c2ccccc2)cc1)c1ccccc1 (centres undefined)
Not satisfied

A record lists `COc1cc2oc(-c3cccc(NC(=O)c4cc(NC(=O)[C@H](C)N)ccc4Cl)c3)cc(=O)c2c(OC)c1OC` . Is its growth below 90%?
Not satisfied

----------
- Test system: TK-10 renal
- protocol notes: NCI-60 one-dose screen, 48 h (100 = growth as untreated, 0 = no growth, -100 = all killed)
- stated conditions: 10 µM unless noted
This is part of a sample that, as a whole, favours compounds with a hit. Of some 83,000 tested, about 20% had one in any assay.
Label 1 (yes) when growth is strictly below 70%; otherwise label 0 (no).

Find out if reported growth for `NS(=O)(=O)c1ccc(Nc2nc(N/N=C/c3ccc(C(F)(F)F)cc3)nc(Nc3ccccc3)n2)cc1` is less than 70%
1 (yes)

I'd appreciate it if you could check whether `COc1ccc(-c2nn(-c3ccccc3)cc2/C=C/C(=O)c2ccc(NC(=O)CCCCCCC(=O)NO)cc2)cc1` has growth smaller than 70%.
0 (no)

Given the entry `C#C[C@]1(O)CC[C@H]2[C@@H]3CC=C4c5sc(C6CC6)nc5CC[C@]4(C)[C@H]3CC[C@@]21C` , would its reported growth be below 70%?
0 (no)

# check: growth < 70% for `IP(CCCSc1n(Cc2ccc3ccccc3c2)c(-c2ccccc2)c(-c2ccccc2)[n+]1Cc1ccc2ccccc2c1)(c1ccccc1)(c1ccccc1)c1ccccc1`
1 (yes)

Check if growth falls below 70% for `NS(=O)(=O)c1ccc(Nc2nc(N/N=C/c3ccc(F)cc3)nc(Nc3ccccc3)n2)cc1` .
1 (yes)

Problem: For the molecule `CCc1ccc(NC(=O)N[C@@H](Cc2cccc(F)c2)C(=O)N[C@@H]2C(=O)N3CCC[C@H]3C(=O)N3CCCC[C@H]3C(=O)N[C@@H](C)C(=O)N3C[C@H](C)C[C@H]3C(=O)O[C@H]2C)c(F)c1` , is growth under 70%?
1 (yes)

Hi there! Is growth for `CNC(=O)c1cc(Oc2ccc3nc(NC(=O)c4ccc(CN5CCN(C)CC5)c(C(F)(F)F)c4)sc3c2)ccn1` below 70%, do you know?
0 (no)

Input `Cc1cc(O)c(=O)cc2c1C[C@H]1CC(C)(C)/C=C/C[C@]3(C)Oc4cc(=O)c(O)cc(C)c4C[C@H]3C[C@H](O)[C@@]1(C)O2` ; condition: growth strictly below 70%. Does it hold?
1 (yes)

Does `CC[C@H](C)[C@H]1NC(=O)[C@@H]([C@H](O)C(C)C)NC(=O)[C@@H](C)N(C)C(=O)[C@H](C)N(C)C(=O)[C@H](CC(C)C)NC(=O)[C@H](CC(C)C)N(C)C(=O)[C@H](C)N(C)C1=O` have growth strictly under 70%?
1 (yes)

Lab log: compare recorded growth with 70%; is it strictly lower for O=S(=O)(NC1CC2CCC1C2)c1ccc2c(c1)C(=NO)c1cc(S(=O)(=O)NC3CC4CCC3C4)ccc1-2 (stereo not given) ?
0 (no)

Problem: For the molecule `COc1cc2cc(Oc3ccc(NC(=O)c4cccc(C(F)(F)F)c4)cc3)c(C)nc2cc1OCCN(C)C` , is growth under 70%?
0 (no)

is_below(growth, 70%) for Cn1c(SC(C(=O)Nc2ccc(F)cc2)c2ccccc2)nc2ccccc2c1=O (stereo not given) ?
0 (no)

Item `COc1ccc(-c2no[n+]([O-])c2Nc2ccccc2Br)cc1` : growth beneath 70%, strictly?
0 (no)

Does `CS(=O)(=O)c1nccc(-c2c(-c3ccc(F)c(OCc4ccc(F)cc4)c3)nc3sccn23)n1` have growth strictly under 70%?
0 (no)

----------
- Test system: HCC-2998 colon
- protocol notes: NCI-60 one-dose screen, 48 h
- stated conditions: 10 µM unless noted
Compounds without any hit were thinned out: in the full panel of roughly 83,000, 20% have a hit. Active and inactive are the calls of the source. Rule for the calls: active = growth percent below 10; inactive = the rest.
// classify into active, inactive

Field: outcome | Entry: `COc1ccc([C@H]2[C@H](O)C(=O)N2c2cc(OC)c(OC)c(OC)c2)cc1O`
inactive

Status in this test for `COc1cc(/C=N/Nc2ccnc3cc(Cl)ccc23)cc(OC)c1O` ?
active

Call for entry `Cn1cc(-c2nn3cc(-c4cccnc4)nc3s2)c2ccccc21` :
inactive

Call for entry `CN1CCN(c2ccc(NC(=O)Nc3ccc4c(ccn4-c4cccc(C(N)=O)n4)c3)cc2C(F)(F)F)CC1` :
inactive

Which outcome was entered for the compound CCCC(=O)NC(c1cccnc1)c1cc(C(C)=O)c2cccnc2c1O (stereo not given) in this test?
inactive

Identify the outcome logged in this assay for the compound shown: `C#Cc1ccc(NC(=O)c2ccc(/C=C/C(=O)c3nccn3C)cc2)c(F)c1`
inactive

Recorded test call requested for `COCCOc1ccc(-c2csc(NC(C)=O)n2)cc1NS(=O)(=O)c1cccc2c(N(C)C)cccc12`
inactive

Test call, this compound: CCOC(=O)C1=C(C)Nc2nnc(Nc3ccccc3)n2C1c1ccccc1 (stereo not given)
inactive

// outcome(item) with item = `CC[C@@](C)(NC(=O)C(C)(C)NC(=O)[C@@H](NC(=O)[C@@H]1CCCN1C(=O)C(C)(C)NC(=O)[C@H](CC(C)C)NC(=O)CNC(=O)C(C)(C)NC(=O)[C@@H](NC(=O)C(C)(C)NC(=O)[C@H](CCC(N)=O)NC(=O)[C@H](C)NC(=O)C(C)(C)NC(=O)[C@H](C)NC(=O)C(C)(C)NC(=O)[C@@H]1CCCN1C(=O)C(C)(C)NC(C)=O)C(C)C)C(C)C)C(=O)N[C@@H](CCC(N)=O)C(=O)N[C@@H](CCC(N)=O)C(=O)N[C@H](CO)Cc1ccccc1`
inactive

Fill in: this test's call for `COc1cc2c3c(n(CCCN4CCC[C@H]4C(N)=O)c(=O)c2cc1OC)-c1cc2c(cc1C3=O)OCO2` is ___
inactive

Per the records of this test, what outcome belongs to `CC(C)C[C@H]1C(=O)O[C@H](C(C)C)C(=O)N(C)[C@@H](C(C)C)C(=O)O[C@H](C(C)C)C(=O)N(C)[C@@H](C(C)C)C(=O)O[C@H](C(C)C)C(=O)N1C` ?
inactive

What did this assay record as the result for COC[C@@]1(C)CC[C@]2(C)CC[C@]3(C)C(=CC[C@@H]4[C@@]5(C)CCCNC(C)(C)[C@@H]5CC[C@]43C)C2C1 (stereo not given in full) ?
inactive

# fetch the recorded call for `CC(C)=CCc1c(O)c(CC=C(C)C)c2c(c1O)C(=O)C1=C[C@@H]3C[C@H]4C(C)(C)O[C@@](C/C=C(\C)C(=O)O)(C3=O)[C@@]14O2` here
active

// param item: `COc1cccc(/C=C/C(=O)c2ccc(NC(=O)COc3cccc4cccnc34)cc2)c1` ; yields the recorded call
inactive

Field: outcome | Entry: `O=C1Nc2cc(OC(F)(F)F)ccc2Oc2ccc(-c3ccnc(N4CCNCC4)c3)cc21`
active
